Origin of measurements: patent US5902812A

Listing of recorded inhibition at 100 µM by entry.
target: PAI-1 (Homo sapiens, UniProt P05121); experiment: biochemical; conditions: 100 μM (third part of Table 1); read-out: Degree of inhibition in PAI chromogenic substrate assay
Sequence (P05121 24-402): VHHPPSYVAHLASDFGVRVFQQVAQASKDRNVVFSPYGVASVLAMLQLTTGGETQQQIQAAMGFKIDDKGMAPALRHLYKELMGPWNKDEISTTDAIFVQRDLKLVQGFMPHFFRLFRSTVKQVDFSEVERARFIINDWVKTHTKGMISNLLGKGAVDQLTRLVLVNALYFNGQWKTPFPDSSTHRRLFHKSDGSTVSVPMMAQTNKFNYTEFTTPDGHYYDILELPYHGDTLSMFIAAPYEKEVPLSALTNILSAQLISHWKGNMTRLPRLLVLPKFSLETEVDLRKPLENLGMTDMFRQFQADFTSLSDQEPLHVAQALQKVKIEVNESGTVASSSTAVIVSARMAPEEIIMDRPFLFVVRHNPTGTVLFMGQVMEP
Where a name gives a salt, the structure may show the parent alone.

Here is how some molecules turned out for inhibition at 100 µM.
CN(C)CCCOc1ccc(/C=c2\[nH]c(=O)/c(=C/c3cccc(N4C(=O)c5ccccc5C4=O)c3)[nH]c2=O)cc1
33%
CCCCOc1ccc(/C=c2\[nH]c(=O)/c(=C/c3ccc(OCCCN(C)C)cc3)[nH]c2=O)cc1
25%
COc1ccccc1/C=c1\[nH]c(=O)/c(=C/c2ccc(OCCCN(C)C)cc2)[nH]c1=O
21%

// query Would you mind telling me what inhibition at 100 µM value was observed for CCN(CC)CCOc1ccc(/C=c2\[nH]c(=O)/c(=C/c3ccccc3)[nH]c2=O)cc1 [Compound 5065.HCl] ?
// result 85%

// query Here is the next molecule: `CN(C)CCCOc1ccc(/C=c2\[nH]c(=O)/c(=C/c3ccccc3[N+](=O)[O-])[nH]c2=O)cc1`
// result 32%

// query Would you kindly repeat that for CN(C)CCCOc1ccc(/C=c2\[nH]c(=O)/c(=C/c3ccccc3Br)[nH]c2=O)cc1 [Compound 5060.HCl] ?
// result 75%

// query Note, next up: `CC(=O)Nc1cccc(/C=c2\[nH]c(=O)/c(=C/c3ccc(OCCCN(C)C)cc3)[nH]c2=O)c1`
// result 65%

###

molecular target: PAI-1 (Homo sapiens); assay: biochemical; conditions: 6.25 μM
Returns one of 1 or -1; 1 when Degree of inhibition in PAI chromogenic substrate assay is >= 9%.

CN(C)CCOc1ccc(/C=c2\[nH]c(=O)/c(=C/c3ccccc3)[nH]c2=O)cc1 [Compound 1908]
1
CN(C)CCOc1ccc(/C=c2\[nH]c(=O)/c(=C/c3ccccc3)[nH]c2=O)c(Cl)c1
-1
CN(C)CCOc1ccc(/C=c2\[nH]c(=O)/c(=C/c3ccccc3)[nH]c2=O)cc1OCCN(C)C [Compound 1978]
-1
CN(C)CCOc1ccc(/C=c2\[nH]c(=O)/c(=C/c3ccccc3)[nH]c2=O)cc1 [Compound 1956]
1
CN(C)CCOc1ccc(/C=c2\[nH]c(=O)/c(=C/c3c(Cl)cccc3Cl)[nH]c2=O)cc1
-1

// query Would you say `CN(C)CCOc1ccc(/C=c2\[nH]c(=O)/c(=C/c3ccccc3)[nH]c2=O)c(Cl)c1.Cl` shows Degree of inhibition in PAI chromogenic substrate assay at minimum 9%?
// result 1

###

biological target: PAI-1 (Homo sapiens, UniProt P05121); assay: biochemical; details: 25 μM
Each entry below carries its reported Degree of inhibition in PAI chromogenic substrate assay.
Answer with the value and then the unit.

CN(C)CCOc1ccc(/C=c2\[nH]c(=O)/c(=C/c3ccccc3)[nH]c2=O)cc1OCCN(C)C [Compound 1949]
1%

// query Sample CN(C)CCOc1ccc(/C=c2\[nH]c(=O)/c(=C/c3ccccc3)[nH]c2=O)c(Cl)c1.Cl [Compound 1960] — what was its Degree of inhibition in PAI chromogenic substrate assay?
// result 67%

// query Request: CN(C)CCOc1ccc(/C=c2\[nH]c(=O)/c(=C/c3ccccc3)[nH]c2=O)c(Cl)c1 [Compound 1951]
// result 2%

// query // query: CN(C)CCOc1ccc(/C=c2\[nH]c(=O)/c(=C/c3ccccc3)[nH]c2=O)cc1 [Compound 1908]
// result 66%

###

biological target: PAI-1 (Homo sapiens); test: biochemical; conditions: 25 μM
Where Degree of inhibition in PAI chromogenic substrate assay equals or exceeds 20%, the correct label is Y; where it does not, the label is N.

# example entries with known answers
CN(C)CCOc1ccc(/C=c2\[nH]c(=O)/c(=C/c3ccccc3)[nH]c2=O)cc1 [Compound 1924]
N
CN(C)CCOc1ccc(/C=c2\[nH]c(=O)/c(=C/c3ccccc3)[nH]c2=O)c(OCCN(C)C)c1 [Compound 1969]
N
CN(C)CCCN(CCCN(C)C)Cc1ccc(/C=c2\[nH]c(=O)/c(=C/c3ccccc3)[nH]c2=O)cc1
Y
CN(C)CCOc1ccc(/C=c2\[nH]c(=O)/c(=C/c3ccccc3)[nH]c2=O)cc1 [Compound 1956]
Y
CN(C)CCOc1ccc(/C=c2\[nH]c(=O)/c(=C/c3c(Cl)cccc3Cl)[nH]c2=O)cc1 [Compound 1980]
Y
CN(C)CCOc1ccccc1/C=c1\[nH]c(=O)/c(=C/c2ccccc2)[nH]c1=O
N

// query Could you verify whether the entry CN(C)CCOc1ccc(/C=c2\[nH]c(=O)/c(=C/c3ccccc3)[nH]c2=O)c(OCCN(C)C)c1 [Compound 1984] shows Degree of inhibition in PAI chromogenic substrate assay of no less than 20%?
// result N

###

biological target: PAI-1 (Homo sapiens); assay: biochemical; conditions: 20 μM (third part of Table 1); read-out: Degree of inhibition in PAI chromogenic substrate assay
Structures can show the parent of a compound that is named as a salt.
The compounds listed here are annotated with their inhibition at 20 µM.
Number in %, nothing else.

# annotated cases, reported inhibition at 20 µM shown
CN(C)CCCOc1ccc(/C=c2\[nH]c(=O)/c(=C/c3ccc4c(c3)OCO4)[nH]c2=O)cc1
43
CN(C)CCCOc1ccc(/C=c2\[nH]c(=O)/c(=C/c3cccc(Cl)c3)[nH]c2=O)cc1
72
CN(C)CCCOc1ccc(/C=c2\[nH]c(=O)/c(=C/c3ccc(C(=O)NCCCCc4ccccc4)cc3)[nH]c2=O)cc1
39
CN(C)CCCOc1ccc(/C=c2\[nH]c(=O)/c(=C/c3ccccc3[N+](=O)[O-])[nH]c2=O)cc1
10
CN(C)CCCOc1ccc(/C=c2\[nH]c(=O)/c(=C/c3ccc(Cl)cc3)[nH]c2=O)cc1
47

// query # inhibition at 20 µM lookup, item `CN(C)CCCOc1ccc(/C=c2\[nH]c(=O)/c(=C/c3ccc(C#N)cc3)[nH]c2=O)cc1`
// result 15

// query Then what about the compound `Cc1cccc(/C=c2\[nH]c(=O)/c(=C/c3ccc(OCCCN(C)C)cc3)[nH]c2=O)c1` ?
// result 10

// query Let us now turn to CN(C)CCCOc1ccc(/C=c2\[nH]c(=O)/c(=C/c3ccccc3Br)[nH]c2=O)cc1 [Compound 5060.HCl]
// result 52

// query Consider next the compound `Cc1ccccc1/C=c1\[nH]c(=O)/c(=C/c2ccc(OCCCN(C)C)cc2)[nH]c1=O` in the same way.
// result 10

###

Each record here notes measured IC50.
biological target: PAI-1 (Homo sapiens); test: biochemical; conditions: PAI chromogenic substrate assay; read-out: IC50
Structures can show the parent of a compound that is named as a salt.
The reply should consist of the numeric value with the unit placed after it.

The examples below pair each entry with its known result.
CN(C)CCCOc1ccc(/C=c2\[nH]c(=O)/c(=C/c3cccc([N+](=O)[O-])c3)[nH]c2=O)cc1 [Compound 5209]
1.4 µM
CN(C)CCCOc1ccc(/C=c2\[nH]c(=O)/c(=C/c3ccc(Cl)cc3)[nH]c2=O)cc1
2.5 µM
CC(=O)Nc1cccc(/C=c2\[nH]c(=O)/c(=C/c3ccc(OCCCN(C)C)cc3)[nH]c2=O)c1
100 µM
CN(C)CCCOc1ccc(/C=c2\[nH]c(=O)/c(=C/c3cccc(N4C(=O)c5ccccc5C4=O)c3)[nH]c2=O)cc1
15 µM
CN(C)CCCOc1ccc(/C=c2\[nH]c(=O)/c(=C/c3cccc(OC(F)(F)F)c3)[nH]c2=O)cc1
15 µM

// query Under PAI-1 (Homo sapiens): IC50 value of CN(C)CCCOc1ccc(/C=c2\[nH]c(=O)/c(=C/c3ccc4c(c3)OCO4)[nH]c2=O)cc1 [Compound 5201] ?
// result 2.5 µM

// query Lookup `CN(C)CCCOc1ccc(/C=c2\[nH]c(=O)/c(=C/c3cccc(Br)c3)[nH]c2=O)cc1`
// result 4.5 µM

// query Then what about the molecule `CN(C)CCCOc1ccc(/C=c2\[nH]c(=O)/c(=C/c3ccc(C#N)cc3)[nH]c2=O)cc1` ?
// result 1.8 µM

// query How about CN(C)CCCOc1ccc(/C=c2\[nH]c(=O)/c(=C/c3ccc(F)cc3)[nH]c2=O)cc1 [Compound 5365.HCl] ?
// result 3.3 µM

###

target: UniProtKB P05121; experiment: biochemical; details: 100 μM (third part of Table 1); read-out: Degree of inhibition in PAI chromogenic substrate assay
Counter-ions that a name gives are not always drawn.
property: inhibition at 100 µM (%)
Please reply with the bare figure in % and do not write the unit itself.

CN(C)CCCOc1ccc(/C=c2\[nH]c(=O)/c(=C/c3ccccc3C(F)(F)F)[nH]c2=O)cc1
71
Cc1cccc(/C=c2\[nH]c(=O)/c(=C/c3ccc(OCCCN(C)C)cc3)[nH]c2=O)c1
58
CN(C)CCCOc1ccc(/C=c2\[nH]c(=O)/c(=C/c3ccc([N+](=O)[O-])cc3)[nH]c2=O)cc1
9

// query Sample `CN(C)CCCOc1ccc(/C=c2\[nH]c(=O)/c(=C/c3cccc([N+](=O)[O-])c3)[nH]c2=O)cc1` — what was its inhibition at 100 µM?
// result 36

// query `CN(C)CCCOc1ccc(/C=c2\[nH]c(=O)/c(=C/c3ccccc3Cl)[nH]c2=O)cc1` , same question.
// result 55

// query Here is the next compound: CN(C)CCCOc1ccc(/C=c2\[nH]c(=O)/c(=C/c3ccc(N(C)C)cc3)[nH]c2=O)cc1 [Compound 5068.HCl]
// result 75

// query Can you check `CN(C)CCCOc1ccc(/C=c2\[nH]c(=O)/c(=C/c3ccc(C(C)(C)C)cc3)[nH]c2=O)cc1` next?
// result 36

// query Also, `CC(=O)Nc1ccccc1/C=c1\[nH]c(=O)/c(=C/c2ccc(OCCCN(C)C)cc2)[nH]c1=O` please.
// result 10

// query Please answer likewise for `Cc1ccccc1/C=c1\[nH]c(=O)/c(=C/c2ccc(OCCCN(C)C)cc2)[nH]c1=O`
// result 46
